biological target: T1, type 2 ryanodine receptor (RyR2) channel in cardiac SR membranes (pig (endogenous in porcine heart SR), UniProt A0A5G2R1W3 1-4900); assay: FRET or BRET; FRET from D-85-FKBP on RyR2 in cardiac SR to A-DPc10, series of [A-DPc10]; Ca2+ not stated for this experiment; Hill fit; conditions: one partner purified
T1 construct: type 2 ryanodine receptor (RyR2), pig heart; homotetrameric assembly of 565-kDa protomers; 'intact RyR2 in cardiac SR vesicles'; In every assay RyR2 stood in native SR membranes and was preloaded with a donor-labelled FKBP12.6 (D-FKBP); also called cardiac ryanodine receptor; source: endogenous, SR vesicles isolated by differential ultracentrifugation of porcine ventricular tissue; residual …
Ends that are not written are not given here. QXL520 = non-fluorescent dark acceptor (quencher) probe
endpoint-name: Kd (µM)
I only need the number, in µM, no unit after it.

Task item: Fill blank: measured Kd of the binder QXL520-GFCPDHKAAMVLFLDRVYGIEVQDFLLHLLEVGFLP (also called acceptor-DPc10; source: synthetic peptide (AnaSpec)) [acceptor-labeled DPc10 (A-DPc10), QXL520 at the N-terminus] is ____.
Reply: 10.4
